biological target: GST-tagged truncated LRRK2 (Homo sapiens); construct: GST-tagged truncated LRRK2 from Invitrogen (Cat # PV4874); GST; purchased Invitrogen PV4874; assay: LRRK2 Assay, Format 2 (Lantha Screen), WT; assay type: biochemical; conditions: geometric mean of 2-4 determinations unless otherwise indicated (a: >=5; b: single determination)
Sequence (Q5S007 970-2527 limits assumed): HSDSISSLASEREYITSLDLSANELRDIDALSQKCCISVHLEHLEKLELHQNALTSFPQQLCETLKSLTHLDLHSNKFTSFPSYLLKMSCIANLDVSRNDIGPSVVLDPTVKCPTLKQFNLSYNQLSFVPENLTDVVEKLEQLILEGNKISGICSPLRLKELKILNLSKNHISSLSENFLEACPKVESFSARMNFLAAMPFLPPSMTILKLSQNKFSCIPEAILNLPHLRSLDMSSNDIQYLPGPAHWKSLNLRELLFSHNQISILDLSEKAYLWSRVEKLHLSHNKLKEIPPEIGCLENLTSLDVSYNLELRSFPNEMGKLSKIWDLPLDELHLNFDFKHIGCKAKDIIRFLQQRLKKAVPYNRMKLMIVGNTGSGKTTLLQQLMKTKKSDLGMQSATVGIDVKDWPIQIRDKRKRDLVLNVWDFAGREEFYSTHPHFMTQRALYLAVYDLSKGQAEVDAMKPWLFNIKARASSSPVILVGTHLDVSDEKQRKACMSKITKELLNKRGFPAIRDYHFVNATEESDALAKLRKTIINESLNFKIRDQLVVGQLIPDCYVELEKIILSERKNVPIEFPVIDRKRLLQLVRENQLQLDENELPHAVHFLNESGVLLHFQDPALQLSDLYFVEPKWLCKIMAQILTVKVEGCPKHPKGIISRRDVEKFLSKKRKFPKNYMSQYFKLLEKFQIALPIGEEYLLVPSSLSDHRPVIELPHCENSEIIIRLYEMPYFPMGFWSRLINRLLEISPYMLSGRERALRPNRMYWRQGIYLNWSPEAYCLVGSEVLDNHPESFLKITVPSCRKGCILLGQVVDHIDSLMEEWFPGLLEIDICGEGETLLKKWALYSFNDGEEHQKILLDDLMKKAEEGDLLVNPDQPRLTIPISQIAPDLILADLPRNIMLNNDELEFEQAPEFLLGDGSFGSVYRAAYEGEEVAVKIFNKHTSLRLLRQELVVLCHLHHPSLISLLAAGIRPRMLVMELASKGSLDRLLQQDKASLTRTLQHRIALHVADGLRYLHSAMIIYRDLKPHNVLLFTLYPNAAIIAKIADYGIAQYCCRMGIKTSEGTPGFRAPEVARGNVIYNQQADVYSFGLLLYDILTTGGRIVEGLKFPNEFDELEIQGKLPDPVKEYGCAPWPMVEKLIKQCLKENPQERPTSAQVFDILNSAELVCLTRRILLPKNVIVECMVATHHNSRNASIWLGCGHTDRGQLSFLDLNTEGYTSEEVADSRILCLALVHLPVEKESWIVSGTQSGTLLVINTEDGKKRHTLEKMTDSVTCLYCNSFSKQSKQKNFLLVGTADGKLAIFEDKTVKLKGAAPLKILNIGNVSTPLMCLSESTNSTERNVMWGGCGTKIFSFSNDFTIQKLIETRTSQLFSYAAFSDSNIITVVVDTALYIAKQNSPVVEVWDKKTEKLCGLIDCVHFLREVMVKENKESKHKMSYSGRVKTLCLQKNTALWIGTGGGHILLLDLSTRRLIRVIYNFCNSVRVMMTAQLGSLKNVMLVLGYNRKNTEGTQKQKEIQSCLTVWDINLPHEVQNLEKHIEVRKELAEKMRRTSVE
pIC50: −log10 of the molar value. Counter-ions that a name gives are not always drawn.

{"molecule": "C[C@@H]1C[C@H](n2c(Cc3cn4ccccc4n3)nc3cnc4ccc(C#N)cc4c32)CCO1 [Example 158, formate salt]", "pIC50": 8.22}
{"molecule": "Cc1cc(Cc2nc3cnc4ccc(C#N)cc4c3n2[C@H]2CC[C@@H](F)C2)no1 (single isomer, unassigned) [Example C66]", "pIC50": 7.53}
{"molecule": "N#Cc1ccc2ncc3nc(Cn4cc(C5CC5)nn4)n([C@@H]4CC[C@H](F)C4)c3c2c1 (single isomer, unassigned; ent-1)", "pIC50": 7.81}
{"molecule": "C[C@@H]1C[C@H](n2c(Cc3nc(C4CC4)n(C)n3)nc3cnc4ccc(Cl)cc4c32)CCO1", "pIC50": 7.13}
{"molecule": "C[C@@H]1C[C@H](n2c(C(F)(F)c3ccccn3)nc3cnc4ccc(C#N)cc4c32)CCO1 [Example 236, formate salt]", "pIC50": 7.89}
{"molecule": "C[C@@H]1C[C@H](n2c(Cc3cc(C4CC4)on3)nc3cnc4ccc(C#N)cc4c32)CCO1", "pIC50": 8.16}
{"molecule": "C[C@@H]1C[C@H](n2c(Cc3cn(C)cn3)nc3cnc4ccc(Cl)cc4c32)CCO1", "pIC50": 8.14}
{"molecule": "Cc1ccn(Cc2nc3cnc4ccc(C#N)cc4c3n2[C@@H]2CCO[C@H](C)C2)n1 [Example 233, formate salt]", "pIC50": 7.84}
{"molecule": "Cc1cn(Cc2nc3cnc4ccc(Cl)cc4c3n2[C@H]2CC[C@@H](F)C2)nn1 (single isomer, unassigned) [Example 93]", "pIC50": 8.25}
{"molecule": "C[C@@H]1C[C@H](n2c(Cc3ccccn3)nc3cnc4ccc(C#N)cc4c32)CCO1", "pIC50": 8.01}
{"molecule": "C[C@@H]1C[C@H](n2c(Cc3nnnn3C)nc3cnc4ccc(Cl)cc4c32)CCO1 [Example 128, formate salt]", "pIC50": 8.14}
{"molecule": "Cc1cnn(Cc2nc3cnc4ccc(C#N)cc4c3n2[C@@H]2CCO[C@H](C)C2)c1", "pIC50": 8.11}
{"molecule": "COc1cnn(Cc2nc3cnc4ccc(F)cc4c3n2[C@@H]2CCO[C@H](C)C2)c1", "pIC50": 7.85}
{"molecule": "C[C@@H]1C[C@H](n2c(Cc3cn(C)cn3)nc3cnc4ccc(C#N)cc4c32)CCO1 [Example 235, formate salt]", "pIC50": 7.97}
